- targetUnderTest: SpLsb4
- protocolSummary: SPOT peptide array binding signal intensity (averaged, normalized) (arbitrary units (background-subtracted, floor 0; scale differs between SH3 domains)); higher = stronger binding of the SH3 domain to the peptide
experimentalEndpoint: SPOT peptide array binding signal intensity
Would you mind answering with just the numeric figure?

In [3]: df
Out[3]:
            binder  measuredvalue
0  TPRLSLPRLPNKHHW            357

Query string: State the recorded SPOT peptide array binding signal intensity for this entry: VRVKKRPLIRPLNSS
Result string: 135

Query string: Another binder to check: APPPPPRRATPEKKP
Result string: 1240
